Overview of recorded EC50 of PTH(1-34), cAMP assay, with 267 nM IgG for various binders
Target: T1, human PTH1R on Saos-2 cells (endogenous) (human, UniProt Q03431 27-593)
T1 sequence (looked up): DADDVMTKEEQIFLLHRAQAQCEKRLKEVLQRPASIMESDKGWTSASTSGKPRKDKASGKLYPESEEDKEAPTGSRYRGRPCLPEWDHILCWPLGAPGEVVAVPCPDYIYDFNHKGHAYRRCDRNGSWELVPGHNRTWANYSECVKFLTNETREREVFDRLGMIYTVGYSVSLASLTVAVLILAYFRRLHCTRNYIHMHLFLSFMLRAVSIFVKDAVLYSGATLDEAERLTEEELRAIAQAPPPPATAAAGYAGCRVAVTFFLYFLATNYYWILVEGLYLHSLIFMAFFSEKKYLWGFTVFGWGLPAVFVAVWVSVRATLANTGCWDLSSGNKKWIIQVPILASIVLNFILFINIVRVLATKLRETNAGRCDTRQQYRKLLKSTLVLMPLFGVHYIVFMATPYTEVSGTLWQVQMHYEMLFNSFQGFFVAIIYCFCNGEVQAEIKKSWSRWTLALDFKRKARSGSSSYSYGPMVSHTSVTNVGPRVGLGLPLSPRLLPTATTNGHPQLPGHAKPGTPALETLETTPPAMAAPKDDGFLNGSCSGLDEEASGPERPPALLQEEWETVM
Test: cell-based or functional assay
Measured Endpoint: EC50 of PTH(1-34), cAMP assay, with 267 nM IgG (nM)

{"Binder": "XPA.85.338 (antibody, V domains shown, Light-chain-shuffled variant of XPA.85.017) VH: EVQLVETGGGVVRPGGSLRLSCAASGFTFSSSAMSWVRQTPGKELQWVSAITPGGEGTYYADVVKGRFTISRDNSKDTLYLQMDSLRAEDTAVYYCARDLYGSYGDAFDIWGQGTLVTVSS VL: SYELTQPPSVSVAPGQTATITCSGDKLGDKYASWYQQKPGQSPVLVMFENRDRPSGIPDRFSGSNSGNTATLTISGTQAMDEADYYCQAWDSSTAWVFGGGTQLTVL", "Obs Value": 32.8}
{"Binder": "XPA.85.287 (antibody, V domains shown, also called Ab287) VH: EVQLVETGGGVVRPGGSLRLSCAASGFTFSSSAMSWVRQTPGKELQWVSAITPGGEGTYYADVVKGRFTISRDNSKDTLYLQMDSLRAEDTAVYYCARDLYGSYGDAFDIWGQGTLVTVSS VL: SYVLTQPPSVSVAPGQTARITCSGDKLGDRYVSWYQQKPGQSPVLVMFEDTGRPAGIPERFSGSNSGNTATLTISGTQAEDEADYYCQAWGTSWVFGGGTQLTVL", "Obs Value": 78.6}
{"Binder": "XPA.85.341 (antibody, V domains shown, Light-chain-shuffled variant of XPA.85.017) VH: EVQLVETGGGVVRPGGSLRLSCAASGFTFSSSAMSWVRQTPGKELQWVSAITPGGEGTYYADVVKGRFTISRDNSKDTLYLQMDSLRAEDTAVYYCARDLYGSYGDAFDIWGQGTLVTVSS VL: SYELTQPSSVSVSPGQTASITCSGDKLGEKYASWYQQKPGQSPVLVMFEDTKRPSGIPERFSGSNSGNTATLTISGTQAEDEADYYCQAWDSSWVFGGGTQLTVL", "Obs Value": 38.1}
{"Binder": "XPA.85.339 (antibody, V domains shown, Light-chain-shuffled variant of XPA.85.017) VH: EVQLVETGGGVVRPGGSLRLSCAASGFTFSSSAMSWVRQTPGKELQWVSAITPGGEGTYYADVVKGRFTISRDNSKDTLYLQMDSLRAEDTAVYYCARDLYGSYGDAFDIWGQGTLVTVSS VL: SYELTQPPSVSVAPGQTATITCSGDRLGDKFISWYQQKPGQSPLLVIFEDNERPSRIPERFSGSNSGNSATLTISGTQAVDEADYYCQAWDSSWVFGGGTQLTVL", "Obs Value": 24.8}

Data origin: patent US20200317817A1
